Where do the numbers come from? From PubChem BioAssay (NCI).

- Tested on: NCI-H522 lung
- TEST METHOD NOTES: NCI tumour cell line growth inhibition, 48 h
METRIC NAME: TGI

// solved cases for TGI follow
* COC(=O)N(C(=O)OC)C(C(=O)O)C(C)C (stereo not given) | > 100 µM
* CCC12CCCN(Cc3ccccc3)C1c1c([nH]c3ccccc13)C(C(=O)OC)C2 (stereo not given) | > 10 µM
* C[C@]12CCC(=O)C=C1CC[C@@H]1[C@@H]2[C@@H](O)C[C@@]2(C)[C@H]1CC[C@]2(O)C(=O)COC(=O)COCC(=O)O | > 100 µM

Could you please provide reported TGI for O=C(c1ccc(Cl)cc1)c1ccc(OCCCOc2ccc(C(=O)c3ccc(Cl)cc3)cc2)cc1 ? Thanks!
> 100 µM

Could you please provide reported TGI for Cc1nc(C)c(C(=O)NNC(N)=S)cc1C(=O)NNC(N)=S ? Thanks!
> 100 µM

* * *

TGI reference
- System: CCRF-CEM leukemia
- TEST METHOD NOTES: NCI tumour cell line growth inhibition, 48 h

Could you please provide reported TGI for CCc1cccc(C)c1NC(=O)c1sc2nc3c(cc2c1N)CCCCC3 ? Thanks!
> 100 µM

Could you please provide reported TGI for OC(c1cc2ccccc2o1)c1cc2ccccc2s1 (configuration not stated) ? Thanks!
> 10 µM

Could you please provide reported TGI for CC(O)c1cc2c(s1)C(=O)c1sccc1C2=O (configuration not stated) ? Thanks!
> 100 µM

Could you please provide reported TGI for Cc1ccc(S(=O)(=O)N/N=C(\c2nc3ccc(Cl)cc3[nH]c2=O)C(O)c2cccc([N+](=O)[O-])c2)cc1 (configuration not stated) ? Thanks!
> 100 µM

Could you please provide reported TGI for COc1ccc2nc3ccc(OC)cc3c(SCCO)c2c1 ? Thanks!
> 31.1 µM

Could you please provide reported TGI for N[C@H](C(=O)O)[C@H]1ON=C(Cl)[C@@H]1O ? Thanks!
> 246 µM

* * *

- System: UACC-257 melanoma
- TEST METHOD NOTES: NCI tumour cell line growth inhibition, 48 h
TGI reference

// solved cases for TGI follow
- Cc1[nH]c2c(c1C)S(=O)(=O)c1cc3ccccc3nc1N2: > 100 µM
- O=C1c2ccc(O)cc2C(=O)c2ccc(O)cc21: > 100 µM
- CC(=O)[C@@]1(C)CC2(CCN(C)CC2)OC1C (some centres undefined): > 100 µM
- CCC12CCCN(Cc3ccccc3)C1c1c([nH]c3ccccc13)C(C(=O)OC)C2 (centres undefined): > 10 µM
- CCOC(=O)C1N(S(=O)(=O)c2ccc(C)cc2)CCC12c1ccccc1N(C(C)=O)C2c1ccc(OC)c(OC)c1 (centres undefined): > 100 µM
- CCCCC(=O)NS(=NC(=O)c1ccccc1)C(Cl)(Cl)Cl (centres undefined): > 100 µM

Could you please provide reported TGI for Cn1cc(C2=C(c3cn(CCCCN)c4ccccc34)C(=O)NC2=O)c2ccccc21 ? Thanks!
> 25 µM

Could you please provide reported TGI for O=CN1CCN(C(=O)c2ccc(Cl)cc2Cl)C1=S ? Thanks!
> 100 µM

Could you please provide reported TGI for CCOP(=O)(OCC)/C(C#N)=C/c1cn(C)cn1 ? Thanks!
> 100 µM

* * *

- System: HCT-116 colon
- TEST METHOD NOTES: NCI tumour cell line growth inhibition, 48 h
METRIC NAME: TGI

// solved cases for TGI follow
- S=C(Nc1ccc(Br)cc1)Nc1ccc(Br)cc1: > 100 µM
- O=C1CC2(c3ccccc3)ON=C(c3ccccc3)N2c2ccccc2N1 (stereo not drawn): > 100 µM
- OC(c1cc2ccccc2o1)c1cc2ccccc2s1 (stereo not drawn): > 10 µM
- COc1ccc(Nc2nc3ccc(C(F)(F)F)cc3nc2-c2ccccc2)cc1OC: > 100 µM
- COC(=O)C(Cc1c(C2Nc3ccccc3C2CC(NC(=O)CNC(C)=O)C(=O)OC)[nH]c2ccccc12)NC(=O)CNC(C)=O (stereo not drawn): > 100 µM

Could you please provide reported TGI for Nc1nc(Cl)c(N)c(NCC2(CO)CC(OCc3ccccc3)C2)n1 (stereo not drawn) ? Thanks!
> 100 µM

Could you please provide reported TGI for S=C(NC1=NCC(CN2CCN(c3ccccc3)CC2)O1)Nc1ccccc1 (stereo not drawn) ? Thanks!
> 100 µM

Could you please provide reported TGI for CC[C@H](O)[C@H](C)C=C1SCCCS1 ? Thanks!
> 100 µM

Could you please provide reported TGI for O=c1c(Oc2ccc(F)cc2F)cc2cnc(NC3CCOCC3)nc2n1CCCO ? Thanks!
> 25 µM

Could you please provide reported TGI for N#CCc1n[nH]c(Cc2ccccc2)n1 ? Thanks!
> 100 µM

Could you please provide reported TGI for O=C(c1ccco1)N1CCCN(C(=O)c2ccco2)C1=S ? Thanks!
> 100 µM

Could you please provide reported TGI for CN1CCCC2(CCCc3ccccc32)C1 (stereo not drawn) ? Thanks!
> 100 µM

Could you please provide reported TGI for C=C(c1ccc2nc(NC(=O)OC)[nH]c2c1)c1cccs1 ? Thanks!
> 45.2 µM

* * *

- Test system: RXF 393 renal
- TEST METHOD NOTES: NCI tumour cell line growth inhibition, 48 h
METRIC NAME: TGI

// solved cases for TGI follow
* CC(C)=CC(=O)C/C(=N\NC(N)=S)C(=O)Nc1ccc(Cl)cc1 | > 100 µM
* O=c1nc(/C=C/c2ccccc2Cl)cc2n1CCN2CCO | > 100 µM
* CCOC(=O)C1(C/C=C(/C)Cl)CCCC1=O (stereo not given) | > 100 µM
* O=C(O)CCCCCCC[C@H]1S[C@H]1CCCCCCO | > 100 µM

Could you please provide reported TGI for COc1ccc(OC)c2c1CC(C(=O)O)(C(=O)O)CC2=O ? Thanks!
> 100 µM

* * *

- System: MALME-3M melanoma
- TEST METHOD NOTES: NCI tumour cell line growth inhibition, 48 h
METRIC NAME: TGI (µM)
State just the number; it will be interpreted in µM.

// solved cases for TGI follow
* COc1cccc(-c2nc3sccn3c2-c2ccnc(NCCCNS(=O)(=O)c3cccc(F)c3)c2)c1 | 7.24
* O=C(/C=C/c1ccc(O)c(O)c1)OCCCc1ccccc1 | 25.4
* O=C(CO[N+](=O)[O-])Nc1ccc(C(=O)/C=C/c2ccc(Cl)cc2)cc1 | 6.61
* COC(=O)c1c(O)ccc2c1c1c(n2Cc2ccccc2Cl)C(=O)c2ccccc2C1=O | 31.4

Now for another entry.
Could you please provide reported TGI for [Cl][Hg][Cl] ? Thanks!
22.1

* * *

- Test system: SK-MEL-5 melanoma
- TEST METHOD NOTES: NCI tumour cell line growth inhibition, 48 h; in the data active = GI50 below about 0.43 µM; inactive = the rest
# output must be one of true (1) for active, false (0) for inactive

- COc1cc(NC(N)=NCCC(C)(C)Oc2ccc(C(F)(F)F)cc2)ncc1C#N: false (0)
- CC[N+](CC)=c1sc2c(s1)C(c1ccc(Cl)cc1)Oc1ccc(Cl)cc1-2 (stereo not drawn): false (0)
- CC(=O)[O][Ga]([Cl])[O]C(C)=O: false (0)
- CO[C@H]1/C=C/O[C@@]2(C)Oc3c(C)c(O)c4c(c3C2=O)C(=O)C(/C=N/N(c2ccccc2)c2ccccc2)=C(NC(=O)/C(C)=C\C=C\[C@H](C)[C@H](O)[C@@H](C)[C@@H](O)[C@@H](C)[C@H](OC(C)=O)[C@@H]1C)C4=O: false (0)
- Cc1ccc(C)c2c1C(O)(C#Cc1ccccc1)c1ccccc1C2(O)C#Cc1ccccc1 (stereo not drawn): false (0)

Please state the recorded outcome for this compound: C=C1C(O)C2C(=C(CCc3ccccc3)C13CC3)C(=O)C(C)(CO)C2O (stereo not drawn)
false (0)

Please state the recorded outcome for this compound: CCC[CH2][Sn]([CH2]CCC)([CH2]CCC)[O]c1ccc(Cl)cc1Cl
true (1)

Please state the recorded outcome for this compound: N[C@H](C(=O)O)[C@H]1ON=C(Cl)[C@@H]1O
false (0)

* * *

- System: A549 NSCLC
- TEST METHOD NOTES: NCI tumour cell line growth inhibition, 48 h
METRIC NAME: TGI

// solved cases for TGI follow
* CN(CCn1cnc2c1c(=O)n(C)c(=O)n2C)C1CCCCC1 | > 100 µM
* Cc1cc(=O)oc2cc(OC(=O)N(C)C)c(Cl)cc12 | > 100 µM

Now for another entry.
Could you please provide reported TGI for Cc1nn(-c2nc3ccccc3[nH]2)c(N)c1-c1ccc(Cl)cc1 ? Thanks!
> 100 µM

* * *

TGI reference
- Tested on: HCC-2998 colon
- TEST METHOD NOTES: NCI tumour cell line growth inhibition, 48 h

// solved cases for TGI follow
* [N-]=[N+]=C1N=CN=C1c1ncn[nH]1 | > 100 µM
* COc1ccc2nc3ccc(OC)cc3c(SCCO)c2c1 | > 100 µM

Now for another entry.
Provide TGI, system HCC-2998 colon, entry Cc1ccc(C)c2c1C(O)(C#Cc1ccccc1)c1ccccc1C2(O)C#Cc1ccccc1 (stereo not drawn)
> 100 µM
